# Experimental protocol: viability loss with TRAIL in NB7+C8 cells, primary screen, TRAIL sensitizer project, cell-based, ATPlite luminescence (AID 624354)
# Measurement context: at 10 µM, hits give high values
Screen size: about 360,000 compounds; about 3,800 (1.1%) were called active. The sample as a whole holds a higher share of actives than the screen did.
Property measured: inhibition (viability loss, TRAIL sensitization) (%)

| Compound | Measured |
| --- | --- |
| O=c1[nH]c(CN2CC=C(c3ccccc3)CC2)nc2scc(-c3cccs3)c12 | -10.4 |
| COc1ccccc1CN1CCN(C(=O)Cc2ccccc2)CC1 | -10.1 |
| CN1C2C=C(N(C(=O)c3ccc(Cl)cc3)c3ccccc3)CC1CC2 (stereo not given) | -8.37 |
| COc1ccc(-n2c(O)c(C(C)=Nc3ccc4c(c3)CCC4)c(=O)[nH]c2=O)cc1 | 7.82 |
| CNC(=O)O/N=C(\N)Cc1csc2ccccc12 | -3.67 |
| C[C@]12CC[C@H](O)C[C@H]1CC[C@@H]1C2CC[C@]2(C)[C@@H](C3=CC(=O)OC3)[C@@H](O)C[C@]12O (stereo not given in full) | 48.7 |
| CN1CCc2cc3c(cc2[C@H]1[C@@H]1OC(=O)c2c1ccc1c2OCO1)OCO3 | -20.1 |
| COc1cccc(-c2nc3ccc(N4CCN(C)CC4)cc3[nH]2)c1 | 86.3 |
| Cc1cc2ccccn2c1C(C[N+](=O)[O-])c1c(F)cccc1Cl (stereo not given) | -0.261 |
| Cc1ccc(Cn2c(C)c3cnn(CC(=O)N4CCC5(CC4)OCCO5)c(=O)c3c2C)cc1 | 2.81 |

====

# Experimental protocol: viability loss with TRAIL in NB7+C8 cells, primary screen, TRAIL sensitizer project, cell-based, ATPlite luminescence (AID 624354)
# Measurement context: at 10 µM, hits give high values
Out of some 360,000 compounds screened, about 3,800 (1.1%) were called active. Only a selection was taken, and actives are over-represented in it overall.
Property measured: inhibition (viability loss, TRAIL sensitization) (%)

| Compound | Measured |
| --- | --- |
| CC(C)Nc1nc(Cl)nc(NC(C)C)n1 | -4.77 |
| CCC1(CC(C)c2ccccc2)C(=O)NC(=O)NC1=O (stereo unspecified) | -15.1 |
| C/C(=N/O)c1ccc2ccc3ccccc3c2c1 | 0.44 |
| CCOC(=O)[C@]12Cc3cc(OC)ccc3[C@H]1N(C(C)C)C(=O)c1ccccc12 | 39.4 |
| CCC(=O)c1ccc(OCC(=O)N2CCN(CC(=O)Nc3ccc(C)cc3)CC2)cc1 | 1.16 |
| CCC/C(=N\O)c1c[nH]c2ccccc12 | -8.01 |
| CCOc1ccc(-c2cc(C)[n+](CCN(CC)CC)c(-c3ccc(OCC)cc3)c2)cc1 | 64.8 |
| Nc1ccc(Cc2ccc(N)c(Cl)c2)cc1Cl | 2.29 |
| CCOC(=O)[C@]12Cc3ccccc3[C@H]1N(C1CCCCC1)C(=O)c1cc(OC)ccc12 | 79.1 |
| COc1ccccc1N1CCN(C(CNC(=O)Oc2ccccc2)c2cccnc2)CC1 (stereo unspecified) | -5.13 |
| O=Cc1cn(Cc2ccc(F)cc2Cl)c2ccccc12 | 17.7 |
